All figures here come from PubChem BioAssay (NCI).

Tested on: SF-295 CNS
experiment: NCI-60 one-dose screen, 48 h (100 = growth as untreated, 0 = no growth, -100 = all killed)
condition context: 10 µM
Compounds without any hit were thinned out: in the full panel of roughly 83,000, 20% have a hit.
# label = t if growth < 90% else f

Here's what some known entries look like.
O=C(Nc1cccc(Cl)c1)Nc1cc2ncncc2cc1OCc1cccc(F)c1 :: t
Nc1ncncc1-c1ccc(F)cc1 :: f
O=C(NCCc1nccs1)c1cnc2c(S)cccc2c1 :: t

Below 90% on growth? Entry COc1cccc(C2(C)Nc3ccccc3-c3nc4ccccc4n32)c1 (stereo not drawn)
f

Please determine if Nc1nc2c(nnn2C2CC(O)C(CO)O2)c(=O)[nH]1 (stereo not drawn) is below 90% in terms of growth.
t

Please let me know if COc1ccc(-c2nnc(SCC(=O)c3ccccc3)o2)cc1 shows growth below 90%.
f

Hello, is growth of the following molecule strictly smaller than 90%? Fc1ccc(Nc2ccnc(N3CCN(c4ccnc5cc(Cl)ccc45)CC3)n2)cc1
t

Answer whether the molecule CCCCCCCCCCCCCC[n+]1ccccc1 has growth strictly less than 90%
t

Answer whether the molecule CNCCCNCCCN1C(=O)c2ccc3c4c(ccc(c24)C1=O)C(=O)N(CCCNCc1ccccc1OC)C3=O has growth strictly less than 90%
t

* * *

Test system: HCC-2998 colon
experiment: NCI-60 one-dose screen, 48 h (100 = growth as untreated, 0 = no growth, -100 = all killed)
condition context: 10 µM
This is part of a sample that, as a whole, favours compounds with a hit. Of some 83,000 tested, about 20% had one in any assay.
// classify: if (growth < 90%) Yes else No

COc1cccc(C(=O)NNc2nc(N3CCOCC3)nc(N3CCN(C(c4ccccc4)c4ccccc4)CC3)n2)c1 :: No
COc1cc(-c2nc(-c3nnc(-c4cccnc4)o3)c3ccccn23)cc(OC)c1OC :: No

Input O=C(Nc1ccc(CN2CCOCC2)cc1)c1ccc(-c2cc(Cl)ccc2Cl)o1 ; condition: growth strictly below 90%. Does it hold?
Yes

growth under 90%? Item: COc1ccc(S(=O)(=O)Nc2cc(/C=C\c3cc(OC)c(OC)c(OC)c3)ccc2OC)cc1
Yes

Is growth of CCN(CC)c1ccc(/C=C/C2=[N+](C)c3ccccc3C2(C)C)c(C)c1 strictly below 90%?
Yes

Determine if CCSc1nc2c([nH]1)c(=O)n(C)c(=S)n2C shows growth strictly lower than 90%.
No

Find out if reported growth for O=C1CC(c2cccc(-c3cccnc3)c2)=Nc2ccc(Br)cc2N1 is less than 90%
Yes

Given c1ccc(OCCC[P+](c2ccccc2)(c2ccccc2)c2ccccc2)cc1 , is recorded growth strictly lower than 90%?
Yes

Is growth strictly under 90% for the entry CN(C)c1ccc2c(c1)OC(N)=C(C#N)C2c1ccc2c(c1)CCO2 (stereo unspecified) ?
Yes

Is growth strictly under 90% for the entry CN(C1c2ccccc2Oc2ccccc21)S(=O)(=O)c1cc(Cl)ccc1Cl ?
Yes

* * *

System: K-562 leukemia
experiment: NCI-60 one-dose screen, 48 h
condition context: 10 µM
The panel holds about 83,000 compounds, 20% with a hit somewhere; the sample as a whole holds those more often. Calls of active or inactive are those of the source. The calls were made as follows: active = growth percent below 10; inactive = the rest.
I would appreciate it if you answered using one of these outcomes: active, inactive

Here are 2 molecules together with their reported answers.
NC(=O)C12C(=O)NC(=O)C1(C(=O)O)C21CCCC1 (stereo unspecified) :: inactive
O=C(N/N=c1/ccoc2cccnc12)N1CCN(c2ncccn2)CC1 :: active

Status in this test for CCCCCCOc1ccc(/C=C/C(=O)c2ccc(B(O)O)cc2)cc1 ?
inactive

Just curious, what result did COc1ccccc1Cn1cc2c(c1-c1ccccc1)CCc1cnoc1-2 get here?
inactive

GET /call?item= CCOC(=O)c1c(O)c2cc(-c3ccccc3)nc(OCC)c2c(=O)n1C returns the recorded outcome of this test.
inactive

Fill in: this test's call for O=C1CC[C@@H](C(=O)N[C@H]2CSSC[C@@H](C(=O)N/C=C/c3ccc(O)cc3)NC(=O)[C@H](Cc3ccccc3)NC(=O)[C@@H]3CCCN3C(=O)[C@@H]3CCCN3C2=O)N1 is ___
inactive

// param item: COc1ccc(-n2nnc3c(sc4ccccc43)c2=O)cc1 ; yields the recorded call
inactive

Name the outcome recorded for COc1cc(C)c2sc3ccccc3c(=O)c2c1NCCN(C)C in the assay.
active

So what was the verdict on Cc1ccc(-n2c(-c3cc4c([nH]c5ccccc54)c(-c4cccc(O)c4)n3)n[nH]c2=S)cc1 in this test?
active

Outcome logged for C(=C\c1nc2ccccc2s1)/c1ccc(N2CCOCC2)s1 in this assay:
inactive

Hey, what did the test say about c1ccc(OCCC[P+](c2ccccc2)(c2ccccc2)c2ccccc2)cc1 ?
active

Field: outcome | Entry: CC(=O)n1nc(C(=O)OC(C)(C)C)c2cc(F)c(F)cc21
inactive

# lookup: test call for CCc1ccc(-c2nnc(COc3ccc(-c4nc5cc(Cl)c(Cl)cc5[nH]4)cc3OC)o2)cc1
inactive

Hey, what did the test say about COc1cc(-c2cc(/C=C/C(C)=O)[nH]n2)cc(OC)c1OC ?
inactive

Outcome? Cn1c([N+](=O)[O-])cnc1C=C1C(=O)c2ccccc2C1=O
inactive

How did this test come out for CCCCn1c(=O)[nH]c2c(c1=O)C(c1ccc(Cl)cc1)c1c([nH]c(=O)n(CCCC)c1=O)N2 ?
inactive

Returns: the outcome recorded for CCOc1nc(-c2ccccc2)cc2c(O)c(C(=O)NCCCO)[nH]c(=O)c12 in this assay.
inactive

What did the test return for Cc1ccccc1[P+](Cc1ccccc1)(c1ccccc1)c1ccccc1 ?
active

Test call, this molecule: CCCCCCCCCCCCCCCCCBr
inactive

What call does the record list for CC(C)=C1CCC(C)C/C1=N\N=C(N)N (stereo unspecified) ?
inactive

Which outcome was entered for the molecule O=C(Nc1ccc(CN2CCOCC2)cc1)c1ccc(-c2cc(Cl)ccc2Cl)o1 in this test?
active

* * *

Tested on: BT-549 breast
experiment: NCI-60 one-dose screen, 48 h (100 = growth as untreated, 0 = no growth, -100 = all killed)
condition context: 10 µM
About 83,000 compounds went through this panel and 20% of them were active in at least one assay; those are over-represented in the sample as a whole.
Exercise: for every item that follows, state its recorded growth.
One number for each entry, in %.

Below, 5 molecules whose answers are already recorded.
COc1ccc(Cn2cc3c(c2-c2ccccc2)CC(C)(C)c2cnoc2-3)cc1 :: 46.2
O=C(NC1CCN(Cc2ccccc2)CC1)c1cc(-c2ccncc2)nc2ccc(Cl)cc12 :: 35.4
COc1ccc(-c2n/c(=C\c3c(O)[nH]c4ccccc34)cc3c2=Nc2ccccc2-3)cc1 :: 78.4
CNC(=S)Sc1ccc([N+](=O)[O-])cc1[N+](=O)[O-] :: 20.5
Nc1c(C(=O)NC2CCCCC2)sc2nc3c(cc12)C(=O)CCC3 :: 95.4

Batch request: growth for each of the following molecules.
1. Cc1ccc(-n2c(-c3cc4c([nH]c5ccccc54)c(-c4cccc(O)c4)n3)n[nH]c2=S)cc1
2. Cc1ccc(-c2cc(-c3cccc(Nc4ccnc5cc(Cl)ccc45)c3)nc3nc(N)[nH]c(=O)c23)cc1
3. COc1cc(-c2c(C#N)c(N)n3c(nc4ccccc43)c2C#N)cc(Br)c1OC
4. CCOc1nc(-c2ccccc2)cc2c(O)c(C(=O)NCCCO)[nH]c(=O)c12

[-35.7, 86.4, 65.1, 97.6]

// for each molecule in input: emit growth
1. CCOCC[P+](c1ccccc1)(c1ccccc1)c1ccccc1
2. COc1cc(-c2cc(-c3ccc(C)cc3)nc3nc(N)[nH]c(=O)c23)ccc1Oc1ccnc2cc(Cl)ccc12
3. CCOC(=O)Nc1ccc2c(c1)C(=O)N(CCOC)c1ccccc1O2

1: 36.9; 2: 112; 3: 52.8

* * *

Tested on: HCC-2998 colon
experiment: NCI-60 one-dose screen, 48 h (100 = growth as untreated, 0 = no growth, -100 = all killed)
condition context: 10 µM
The panel holds about 83,000 compounds, 20% with a hit somewhere; the sample as a whole holds those more often.
Kindly supply the reported growth values for the records listed here.
Numbers only, in %.

CNCCCNCCCN1C(=O)c2ccc3c4c(ccc(c24)C1=O)C(=O)N(CCCNCc1ccccc1OC)C3=O :: -9.5
CC(C)C[C@H](NC(=O)CCn1ccc2ccccc2c1=O)B(O)O :: 59.9
Cc1cc(C)c(/C=C2\C(=O)Nc3ccc(NC(=O)CCCCCCC(=O)NO)cc32)[nH]1 :: 40.2

Would you mind listing growth for each of the following compounds?
1. CCOC(=O)c1c(C)n(-c2ccc(Cl)cc2)c2ccc(OC(=O)/C=C/c3ccccc3)cc12
2. Nc1ncncc1-c1ccc(F)cc1
3. N/C(=N\O)c1cn(C2OC(CO)C(O)C2O)c2ncnc(N)c12 (configuration not stated)
4. CC(C)=C1CCC(C)C/C1=N\N=C(N)N (configuration not stated)
5. CCCCCCCOc1cccc(/C=C2/C(=O)N=C3SCCCN32)c1
6. C[C@@H]1C(=O)N(C[C@H](Cc2ccccc2)NC(=O)OCc2ccccc2)[C@]1(Cc1ccccc1)C(=O)OCc1ccccc1
7. CCCCCc1cc[n+](CC(=O)c2ccc(Cl)cc2)cc1
8. N#C/C(=C\N1C(=O)/C(=C/c2cccc([N+](=O)[O-])c2)SC1=S)c1nc2ccccc2s1

102
109
-23.1
109
95.8
71
91
100

For every listed record, write down its growth.
1. CCCOCC(O)CNCCN (configuration not stated)
2. C#Cc1ccc(-n2c(/C=C/c3cc(OC)c(OC)c(OC)c3)nc3ncccc3c2=O)cc1
3. C[N+]1=C(/C=C/c2ccc(I)cc2)C(C)(C)c2ccccc21

131
91
103

Hi, could you look up growth for each item in my list?
1. O=c1oc2cc(OS(=O)(=O)C3CC3)ccc2c2c1CCCCCC2
2. CCCCN(CCCC)c1ccc(C(=NC(C)CCCN(CC)CC)c2ccc(N(C)C)cc2)cc1 (configuration not stated)
3. CCCCC(CC#N)(CCC)CCC
4. COc1cc(C2=Nc3c/c(=C\c4c(O)[nH]c5ccc(Cl)cc45)ccc3=N2)cc(OC)c1OC
5. CCN(CC)CCCOC(=O)Nc1ccccc1Cl
6. C#CCNCCCN1C(=O)c2ccc3c4c(ccc(c24)C1=O)C(=O)N(CCCNCC#C)C3=O

[90.8, -59, 96.3, 66.3, 110, -90]

I need growth for every entry listed below, if you could help.
1. O=C1/C(=C/c2ccc(O)cc2)Cc2ccc(Cl)cc21
2. N#CN1CC[C@H](C(=O)Nc2ncc(-c3ccccc3)s2)C1

115
-11.1
